src = a melting point compilation (Tetko et al.; mined from patent text by program, amines drawn as free bases though some values may be those of a salt)

attribute_measured: melting point

Some solved cases for reference:
structure_smiles_string: COc1ccc(C(=O)NCCOc2cccc3c2OCCO3)c(OC)c1OC
melting point: 128 °C
//
structure_smiles_string: CC(=O)Nc1nc(CCCN2CCN(C(c3ccccc3)c3ccccc3)CC2)cs1
melting point: 213 to 215 °C
//
structure_smiles_string: CCN(CCNS(C)(=O)=O)c1ccc(N)c(C)c1
melting point: 128 to 130 °C
//
structure_smiles_string: COC(=O)C(=O)c1ccc(S(=O)(=O)CCOc2ccc3ccccc3c2)cc1
melting point: 110 to 111 °C

Then this molecule:
// query # lookup: melting point of `COC(=O)c1ccc2c(c1CBr)OCO2`
// result 56 to 58 °C

###

melting point values by entry

Examples with their reported melting point follow.
structure_smiles_string: COc1cc(C(C)C)c2c(c1)S(=O)(=O)N(CBr)C2=O
melting point: 157 to 159 °C
//
structure_smiles_string: CS(=O)(=O)c1ccc(C(=O)O)c(C(F)(F)F)c1F
melting point: 250 to 252 °C

// query Return reported melting point; argument: `COC(=O)c1ccc(C#Cc2ccc(O)c(C34CC5CC(CC(C5)C3)C4)c2)s1`
// result 207 to 208 °C

// query Entry to check: `CSc1ccc(-c2coc3ccc(-c4nnc([C@H](C)O)o4)cc23)cc1`
// result 164 to 165 °C

###

attribute_measured: melting point (°C)
State just the number; it will be interpreted in °C.

// query Given the molecule `O=C(O)c1cccc(-c2nc(=O)c3ccccc3s2)n1` , what is its reported melting point?
// result 260

// query Cool, now `CC1(C)CC(=O)Nc2c(CCN3CCN(c4noc5ccccc45)CC3)cc(F)cc21`
// result 230

###

attribute_measured: melting point

Example results:
molecule: CNC(=O)c1ccc(C(=O)OC)cc1N
melting point: 167 to 168 °C

molecule: CN(C(=O)c1sc2cc(C(=O)O)ccc2c1S)c1ccc2sc3ccccc3c(=O)c2c1
melting point: 210 to 212 °C

molecule: Cn1c2c(ccc1=O)C(NCCc1ccc3ccccc3c1)CCC2 (centres undefined)
melting point: 113 to 115 °C

From here, focus on the item given below.
// query // lookup melting point for `CCN(CC)c1nc(C)nc(N)n1`
// result 125 to 127 °C

###

List of melting point values.

Some solved entries appear below for comparison.
compound: CCn1cc(C(=O)O)c(=O)c2cc(F)c(-c3ccnc(N)n3)cc21
melting point: 245 to 247 °C

compound: COc1cc(COc2cccc3c2CN(C2CCC(=O)NC2=O)C3=O)ccc1OCCN1CCCC1 (centres undefined)
melting point: 160 to 162 °C

compound: CCOC(=O)CC(=O)c1ccc(N)cc1
melting point: 82 to 84 °C

Here is the next item to consider.
// query Consider the compound `COc1ccc(CCNCCCOc2ccccc2NC(=O)c2cccc3[nH]ccc23)cc1OC` and give its measured melting point.
// result 182 °C

###

Parameter: melting point. Scope: all listed entries.

Sample records with melting point:
compound: N#Cc1cccc(NC(=O)n2ccnc2)c1
melting point: 174 to 176 °C
//
compound: CC(CS)C(=O)N1CC2CCCCC2C1C(=O)O (configuration not stated)
melting point: 119 to 129 °C

// query Which value of melting point has been reported for `CCOC(=O)/C=C\C=C(c1ccccc1)c1ccccc1` in the records?
// result 34 to 35 °C

// query Param item: `Cc1c(NC(=O)c2ccc(OC[C@@H]3CCCO3)cc2)ccc2cc(CNCC(C)(C)C)n(C)c12`
// result 201 °C

// query Proceed to `COCc1cc([N+](=O)[O-])ccc1C`
// result 45 to 49 °C
